test: soluble fraction after stress (log2 fold change); higher = more stays soluble; pooled small domains, quantitative proteomics; conditions: stress: pH 4
Test Readout: soluble fraction (log2)
One number for each entry.

HMKTMSLSSIEKAIYKTKYENEPTSQRLSRIESSVFGTNFSQDSESERIARISSAINAQKSAK ... 0.22

For every item in the list below, what is its measured soluble fraction (log2)?
1. HMSPKYLELVRWINTQIQEKKLTAGQKMYSENELKEMFGVSRQTVRHAISVLEGEGMIRRVRGSGTYINDN
2. HMIKITLPDGSVKEYKKGITPAEVAQSISEGLARNVISASYNGKTIETVTPLTTDGSLVLYTWDSPEGK
3. HMGLVLIDSYNDIGSAKLITNKIRNLGLIFEENENKINVFAGPFEKNDINLKIDFLIRNGYTNAQLY

Ans:
[-0.043, -0.168, -1.92]
